# Target desc: T1, human VPAC2 receptor (human, UniProt P41587 24-438)
# T1 sequence (looked up): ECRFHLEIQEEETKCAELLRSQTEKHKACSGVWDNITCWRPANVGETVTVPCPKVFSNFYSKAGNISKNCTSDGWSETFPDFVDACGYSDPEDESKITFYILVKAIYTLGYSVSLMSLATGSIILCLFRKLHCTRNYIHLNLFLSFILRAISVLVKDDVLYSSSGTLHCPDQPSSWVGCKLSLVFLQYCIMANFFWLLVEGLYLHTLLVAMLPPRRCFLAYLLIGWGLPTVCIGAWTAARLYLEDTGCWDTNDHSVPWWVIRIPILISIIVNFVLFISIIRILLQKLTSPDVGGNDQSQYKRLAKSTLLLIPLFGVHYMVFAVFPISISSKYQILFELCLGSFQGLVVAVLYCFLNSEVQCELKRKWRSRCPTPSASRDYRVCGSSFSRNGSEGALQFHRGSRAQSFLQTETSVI
# Experiment summary: cell-based or functional assay
Where no end group is shown, it is not given here. [ ]: non-standard residue; d: D form. hArg = N=C(N)NCCCC[C@H](N)C(=O)O
Observed property: EC50 cAMP, DiscoveRx

Reference set (3 entries):
- HSDAVFTDNYTRLRKQVAAIKYLQSIKNKRYGGPSSGAPPPS (not fully specified) [P19]: 9.03 nM
- H[dA]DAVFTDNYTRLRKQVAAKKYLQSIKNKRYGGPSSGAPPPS [P47]: 1.07 nM
- HSDTVFTDNYTRLRKQVAAKKYLQSIKNKRYGGPSSGAPPPS [P54]: 32.8 nM

Kindly note the recorded EC50 cAMP, DiscoveRx for HSDAVFTDNYTRLRKQVAAKKYLQSIKNRRYGGPSSGAPPPS [P25] , which is 3.02 nM

Kindly note the recorded EC50 cAMP, DiscoveRx for HSDAVFTDNYTRLRRQVAARRYLQSIRNRRYGGPSSGAPPPS (not fully specified) [P71] , which is 3.14 nM

Kindly note the recorded EC50 cAMP, DiscoveRx for HSDAVFTDNYTRLRKQVAAKKYLQSIKNKIYGGPSSGAPPPS [P76] , which is 3.88 nM

Kindly note the recorded EC50 cAMP, DiscoveRx for HGDAVFTDNYTRLRKQVAAKKYLQSIKNKRYGGPSSGAPPPS [P43] , which is 5.37 nM

Kindly note the recorded EC50 cAMP, DiscoveRx for HSDAVFTDNYTRLRKQVAAKKYLQSIQNKRYGGPSSGAPPPS [P74] , which is 2.72 nM

Kindly note the recorded EC50 cAMP, DiscoveRx for HSDAVFTDNYTRLRKQVAAKKYLQSI[hArg]NKRYGGPSSGAPPPS (ends and bridges not checked) [P22] , which is 1.18 nM

Kindly note the recorded EC50 cAMP, DiscoveRx for Ac-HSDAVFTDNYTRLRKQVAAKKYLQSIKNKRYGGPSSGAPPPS [P33] , which is 0.86 nM

Kindly note the recorded EC50 cAMP, DiscoveRx for HSDAVFTDNYTRAAAKVAAKKYLQSIKNKRYGGPSSGAPPPS [P88] , which is > 1000 nM

Kindly note the recorded EC50 cAMP, DiscoveRx for HSDAVFTDNYTRFRKQVAAKKYLQSIKNKRYGGPSSGAPPPS [P26] , which is 4.81 nM

Kindly note the recorded EC50 cAMP, DiscoveRx for HSDWVFTDNYTRLRKQVAAKKYLQSIKNKRYGGPSSGAPPPS [P56] , which is 109 nM
